# Tested on: PFSK-1 (Other Solid Carcinomas)
# measurement.protocol: combination Emax (second highest fraction inhibited in the dose matrix, 72 h); higher = more inhibition; extreme values may be limits of the assay

>  <compound>
CC1(C)CCC(CN2CCN(c3ccc(C(=O)NS(=O)(=O)c4ccc(NCC5CCOCC5)c([N+](=O)[O-])c4)c(Oc4cnc5[nH]ccc5c4)c3)CC2)=C(c2ccc(Cl)cc2)C1 [Venetoclax] + C=CCn1c(=O)c2cnc(Nc3ccc(N4CCN(C)CC4)cc3)nc2n1-c1cccc(C(C)(C)O)n1 [AZD1775] (first compound max 1 µM, partner max 1 µM)

>  <combination Emax>
0.72

$$$$
>  <compound>
CC(=O)c1c(C)c2cnc(Nc3ccc(N4CCNCC4)cn3)nc2n(C2CCCC2)c1=O [Palbociclib] + CN(CC[C@H](CSC1=CC=CC=C1)NC2=C(C=C(C=C2)S(=O)(=O)NC(=O)C3=CC=C(C=C3)N4CCC(CC4)[C@H](C5=CC=CC=C5C6=CC=C(C=C6)Cl)O)S(=O)(=O)C(F)(F)F)CCO [AZD4320] (first compound max 10 µM, 7x7, partner max 1 µM)

>  <combination Emax>
0.51

$$$$
>  <compound>
Cc1c2c(nn1C)CSCc1cc(n(C)n1)CSc1cc(c3ccccc3c1)OCCCc1c(C(=O)O)n(C)c3c-2c(Cl)ccc13 [AZD5991] + C[C@@H]1COCCN1C2=NC(=NC(=C2)C3(CC3)[S@](=N)(=O)C)C4=C5C=CNC5=NC=C4 [AZD6738] (first compound max 1 µM, 7x7, partner max 10 µM)

>  <combination Emax>
1

$$$$

Data provenance: the supplement of paper PMC11061612
